B1: CDC14A (parent)
chain: LNLAMVYRYCCKLNKKLKSYSLSR

Variants of: B1
measurement_notes: protein stability index of a GFP-peptide fusion (GPS, HEK-293T) (PSI 1-6); higher = more stable;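 note: lentivirally expressed fusions sorted by FACS into six bins by GFP to DsRed ratio, PSI derived from sequencing read proportions per bin multiplied by bin number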
details: c terminus: a fixed tail appended
measured_quantity: protein stability index
Provide a numeric answer; units are not to be included.

Please supply the value of reported protein stability index for the item L1F 2.51

Please supply the value of reported protein stability index for the item C10T 2.32

Please supply the value of reported protein stability index for the item L17V 4.14

Please supply the value of reported protein stability index for the item S21F 2.38

Please supply the value of reported protein stability index for the item Y20S 2.63

Please supply the value of reported protein stability index for the item V6P 2.15

Please supply the value of reported protein stability index for the item L1H 2.26

Please supply the value of reported protein stability index for the item N2R 2.39

Please supply the value of reported protein stability index for the item V6K 2.39

Please supply the value of reported protein stability index for the item N14S 2.35

Please supply the value of reported protein stability index for the item Y9C 2.59

Please supply the value of reported protein stability index for the item K15Q 4.63

Please supply the value of reported protein stability index for the item Y20L 2.94

Please supply the value of reported protein stability index for the item Y7F 3.48

Please supply the value of reported protein stability index for the item L1Y 2.49

Please supply the value of reported protein stability index for the item L1D 3.11

Please supply the value of reported protein stability index for the item S23V 2.77

Please supply the value of reported protein stability index for the item Y9W 2.91

Please supply the value of reported protein stability index for the item R8C 3.52

Please supply the value of reported protein stability index for the item K16P 2.42

Please supply the value of reported protein stability index for the item M5D 3.92

Please supply the value of reported protein stability index for the item L17F 2.64

FYI, the data here is from the supplement of paper PMC10567573.
